Where do the numbers come from? From patent US9315494B2.

Test system: IFNα-stimulated STAT-dependent luciferase reporter in Kit225 T cells
experiment.notes: Kit225 T cell assay, IFNα stimulated STAT-dependent luciferase reporter
Assay type: cell-based, human
experimental.context: Kit225 T cells, 200 U/mL human recombinant IFNα, 5-6 hours, luciferase; read-out: IFNα (Kit225 T Cell Inhibition Data)
readout: IC50 (nM)

1) CCc1cc(C#N)ccc1Nc1cc(Nc2cc(C)nc(C)n2)ncc1C(=O)NC [Example 401]	440

(1) CNC(=O)c1cnc(Nc2ccccn2)cc1Nc1ccc(F)cc1OC [Example 147]
(2) CNC(=O)c1cnc(Nc2ccc(-n3cc(F)ccc3=O)cn2)cc1Nc1ccccc1S(C)(=O)=O [Example 301]
(3) CNC(=O)c1cnc(Nc2ccc(C#N)cn2)cc1Nc1cccc(-c2ncn(C)n2)c1OC [Example 376]
Query: Ascending by IC50, please: list the compounds accordingly. Please list each label once, in the requested order.
Result: 3, 1, 2

---

Test system: IFNα-stimulated STAT-dependent luciferase reporter in Kit225 T cells
experiment.notes: Kit225 T cell assay, IFNα stimulated STAT-dependent luciferase reporter
Format: cell-based, human
experimental.context: Kit225 T cells, 200 U/mL human recombinant IFNα, 5-6 hours, luciferase; read-out: IFNα (Kit225 T Cell Inhibition Data)
Protocol: Kit225 T cells with a stably-integrated STAT-dependent luciferase reporter were plated in RPMI (Gibco) containing 10% heat-inactivated FBS (Gibco) and 100 U/mL PenStrep (Gibco). The cells were then stimulated with either 20 ng/mL human recombinant IL-23 or 200 U/mL human recombinant IFNα (PBL InterferonSource) for 5-6 hours. Luciferase expression was measured using the STEADY-GLO® Luciferase Assay System (Promega) according to the manufacturer's instructions.
pIC50: −log10 of the molar value.
readout: pIC50

Solved cases (5 shown):
1) CNC(=O)c1cnc(Nc2ccc(F)cn2)cc1Nc1ccc(OC)cc1C(N)=O	6.52
2) CNC(=O)c1cnc(Nc2cc(C)c(F)cn2)cc1Nc1cccc(C(=O)NCCN2CCOCC2)c1OC	7.52
3) CNC(=O)c1cnc(Nc2cc(C)c(F)cn2)cc1Nc1ccccc1S(C)(=O)=O [Example 432]	7.70
4) CNC(=O)c1cnc(Nc2cccc(C)n2)cc1Nc1ccc(Cl)cc1OC	6.68
5) CNC(=O)c1cnc(Nc2cc(C)c(F)cn2)cc1Nc1cccc(-c2nc[nH]n2)c1OC(F)F	6.92

(P) CNC(=O)c1cnc(Nc2ccc(F)cn2)cc1Nc1cc(F)ccc1F
(Q) CCc1cccc(Nc2cc(Nc3ccc(N4CCOCC4)cn3)ncc2C(=O)NC)c1
Query: Which value of pIC50 is numerically greater: that of P or that of Q ? When you have decided, please share the label of that item.
Result: Q
(Q: 5.36, P: 5.04)

---

Test system: IFNα-stimulated STAT-dependent luciferase reporter in Kit225 T cells
experiment.notes: Kit225 T cell assay, IFNα stimulated STAT-dependent luciferase reporter
Format: cell-based, human
experimental.context: Kit225 T cells, 200 U/mL human recombinant IFNα, 5-6 hours, luciferase; read-out: IFNα (Kit225 T Cell Inhibition Data)
readout: IC50 (nM)

1. CNC(=O)c1ccnc(Nc2cc(Nc3ccc(Cl)cc3OC)c(C(=O)NC)cn2)c1	310

(a) CNC(=O)c1cnc(Nc2ccc(F)cn2)cc1Nc1ccccc1S(C)(=O)=O
(b) CCS(=O)(=O)c1ccccc1Nc1cc(Nc2ccc(F)cn2)ncc1C(=O)NC
Query: Could you check which of a and b has a smaller value for IC50? Which one? Tell me its label.
Result: a
(a: 70 nM, b: 1080 nM)

(P) CNC(=O)c1cnc(Nc2cc(F)ccn2)cc1Nc1cc(F)cc(F)c1OC
(Q) CNC(=O)c1cnc(Nc2cc(-n3ccccc3=O)ccn2)cc1Nc1ccc(F)cc1OC
(R) CNC(=O)c1cnc(Nc2ccc(F)cn2)cc1Nc1ccc(C2CC2)cc1
(S) CNC(=O)c1cnc(Nc2ccc(N3CCCC3=O)cn2)cc1Nc1ccc(Cl)cc1OC
Query: Kindly order the items shown according to IC50, from the highest value down. Submit the labels in the order that the ranking request calls for.
Result: R, Q, P, S

(1) CNC(=O)c1cnc(Nc2cc(C#N)ccn2)cc1Nc1cnccc1OC
(2) CNC(=O)c1cnc(Nc2ccc(F)cn2)cc1Nc1cc(F)cc(F)c1OC
Query: Between the entries labeled 1 and 2 , whose measured IC50 is lower? I would appreciate it if you answered with the label of your choice.
Result: 2

---

assay.system: recombinantly expressed His-tagged protein corresponding to amino acids 575-869 of human Tyk2 (Homo sapiens, UniProt P29597)
Construct: corresponding to amino acids 575-869 of human Tyk2
Sequence (P29597 575-869): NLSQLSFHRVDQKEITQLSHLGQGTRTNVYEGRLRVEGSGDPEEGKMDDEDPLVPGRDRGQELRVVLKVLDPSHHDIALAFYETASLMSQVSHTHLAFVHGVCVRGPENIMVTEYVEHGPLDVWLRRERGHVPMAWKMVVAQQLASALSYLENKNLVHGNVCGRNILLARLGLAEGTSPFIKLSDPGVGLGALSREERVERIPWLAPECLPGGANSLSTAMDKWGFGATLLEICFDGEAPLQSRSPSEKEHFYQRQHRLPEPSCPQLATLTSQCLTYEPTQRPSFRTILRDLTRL
experiment.notes: Probe displacement assay (scintillation proximity, [3H] probe)
experimental.context: 2.5 nM Tyk2 (575-869), 40 nM radiolabeled probe, 30 minutes at room temperature
pEC50: −log10 of the molar value.
readout: pEC50

# example entries with known answers
1. CNC(=O)c1cnc(Nc2cc(C)c(F)cn2)cc1Nc1cccc(-c2ccn(C)n2)c1OC	8.22
2. CNC(=O)c1cnc(Nc2cc(C)c(F)cn2)cc1Nc1cccc(C(=O)NCc2ccccn2)c1OC	7.82

(I) CNC(=O)c1cnc(Nc2cc(C#N)ccn2)cc1Nc1ccc(S(C)(=O)=O)cc1OC
(II) CNC(=O)c1cnc(Nc2cc(C)n(C)n2)cc1Nc1cccc(-c2nnc[nH]2)c1OC
Query: Out of I and II , name the one with the higher pEC50. Selection: enter the item's label.
Result: II
(II: 8.33, I: 7.16)

---

assay.system: recombinantly expressed His-tagged protein corresponding to amino acids 575-869 of human Tyk2 (Homo sapiens, UniProt P29597)
Construct: corresponding to amino acids 575-869 of human Tyk2
experiment.notes: Probe displacement assay (scintillation proximity, [3H] probe)
experimental.context: 2.5 nM Tyk2 (575-869), 40 nM radiolabeled probe, 30 minutes at room temperature
pEC50: −log10 of the molar value.
readout: pEC50

1) CNC(=O)c1cnc(Nc2ccc(C#N)c(C)n2)cc1Nc1ccc(F)cc1OC	7.39
2) CNC(=O)c1cnc(Nc2cc(C)nc(C)n2)cc1Nc1cccc(-c2nnc(C)[nH]2)c1OC	8.32

(P) CNC(=O)c1cnc(Nc2ccc(F)cn2)cc1Nc1cccc2ccccc12
(Q) CNC(=O)c1cnc(Nc2cc(C)c(F)cn2)cc1Nc1cccc(C(=O)NCCF)c1OC
Query: Which gives the smaller pEC50 number: P or Q ? Please identify the chosen entry by its label.
Result: P
(P: 6.25, Q: 8.59)

---

Tested on: IFNα-stimulated STAT-dependent luciferase reporter in Kit225 T cells
experiment.notes: Kit225 T cell assay, IFNα stimulated STAT-dependent luciferase reporter
Format: cell-based, human
experimental.context: Kit225 T cells, 200 U/mL human recombinant IFNα, 5-6 hours, luciferase; read-out: IFNα (Kit225 T Cell Inhibition Data)
readout: IC50 (µM)

Worked cases, answers included:
1) CNC(=O)c1cnc(Nc2ccc(F)cn2)cc1Nc1ccc(S(C)(=O)=O)cc1OC [Example 44]	1.46
2) CNC(=O)c1cnc(Nc2ccc(C#N)c(C)n2)cc1Nc1ccc(Cl)cc1OC [Example 118]	0.57

(a) CNC(=O)c1cnc(Nc2ccc(C(F)(F)F)cn2)cc1Nc1ccc(F)cc1OC [Example 157]
(b) CNC(=O)c1cnc(Nc2cc(F)ccn2)cc1Nc1ccccc1C(N)=O [Example 71]
(c) CNC(=O)c1cnc(Nc2cc(C#N)ccn2)cc1Nc1ccccc1C(N)=O [Example 84]
(d) CNC(=O)c1cnc(Nc2cc(C)c(F)cn2)cc1Nc1cccc(C(=O)NCc2nccs2)c1OC [Example 345]
(e) CNC(=O)c1cnc(Nc2cc(C)nc(C)n2)cc1Nc1cccc(-c2nnc[nH]2)c1OC [Example 362]
Query: Order the records so the highest IC50 appears first and the lowest last. Submit the labels in the order that the ranking request calls for.
Result: a, b, c, d, e
(a: 9.86 µM, b: 0.76 µM, c: 0.35 µM, d: 0.03 µM, e: 0.01 µM)

---

Tested on: IFNα-stimulated STAT-dependent luciferase reporter in Kit225 T cells
experiment.notes: Kit225 T cell assay, IFNα stimulated STAT-dependent luciferase reporter
Type: cell-based, human
experimental.context: Kit225 T cells, 200 U/mL human recombinant IFNα, 5-6 hours, luciferase; read-out: IFNα (Kit225 T Cell Inhibition Data)
pIC50: −log10 of the molar value.
readout: pIC50

Worked examples, 2 molecules total:
1) CNC(=O)c1cnc(Nc2cc(C)nc(C)n2)cc1Nc1cccc(-c2ncn(CC(C)(C)O)n2)c1OC	6.77
2) [2H]C([2H])([2H])NC(=O)c1cnc(Nc2ccccn2)cc1Nc1cccc(-c2ncc(F)cn2)c1OC	8.00

(a) CNC(=O)c1cnc(Nc2ccc(C#N)cn2)cc1Nc1ccc(F)cc1OCF
(b) CNC(=O)c1cnc(Nc2ccccn2)cc1Nc1ccc(F)cc1S(C)(=O)=O [Example 299]
Query: // returns a or b , whichever has the lower pIC50 Identify your selection by its label.
Result: a

(A) CNC(=O)c1cnc(Nc2ccc(-n3ccccc3=O)cn2)cc1Nc1ccc(Cl)cc1OC
(B) CNC(=O)c1cnc(Nc2ccc3ccccc3n2)cc1NC1CCCC1C(N)=O (centres unmarked) [Example 288]
Query: Could you please tell me which of these two has the higher pIC50: A or B ? Returns: label corresponding to the selected item.
Result: A
(A: 6.55, B: 5.88)

(I) CNC(=O)c1cnc(Nc2ccc(F)cn2)cc1Nc1ccc(C(=O)N2CCCC2)cc1OC
(II) CNC(=O)c1cnc(Nc2cc(OC)ccn2)cc1Nc1ccc(F)cc1OC
Query: Choose between I and II : whose measured pIC50 value is numerically larger? Indicate your choice by writing its label.
Result: I
